# TARGET SYSTEM: DOR (Homo sapiens, UniProt P41143)
# Sequence (P41143 whole entry): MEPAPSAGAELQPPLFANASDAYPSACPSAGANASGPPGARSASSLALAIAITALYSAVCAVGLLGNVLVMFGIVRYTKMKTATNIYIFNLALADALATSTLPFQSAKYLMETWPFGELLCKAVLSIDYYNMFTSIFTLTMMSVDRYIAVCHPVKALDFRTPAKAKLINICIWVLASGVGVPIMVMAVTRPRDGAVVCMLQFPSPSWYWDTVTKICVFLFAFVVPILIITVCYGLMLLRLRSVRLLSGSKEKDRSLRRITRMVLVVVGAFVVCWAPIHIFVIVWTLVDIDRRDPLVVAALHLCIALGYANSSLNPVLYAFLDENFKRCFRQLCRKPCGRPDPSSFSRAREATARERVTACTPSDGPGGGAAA
pKi: −log10 of the molar value.
Decision: pKi >= 6 yields t, all other cases yield f.

{"MOLECULE": "COc1ccc(CN2CC[C@H]3C=CC[C@@H](C(=O)Nc4ccccc4)[C@H]3C2=O)cc1OC (racemic)", "ANSWER LABEL": "f"}
{"MOLECULE": "CN(C)C(=O)[C@@H]1CC=C[C@@H]2CCN(C3CCCCC3)C(=O)[C@@H]21 (racemic)", "ANSWER LABEL": "f"}
{"MOLECULE": "O=C(Nc1nccs1)[C@@H]1CC=C[C@@H]2CCCN(C3CCCCC3)C(=O)[C@@H]21 (racemic)", "ANSWER LABEL": "f"}
{"MOLECULE": "O=C(Nc1ccccc1)[C@@H]1CC=C[C@@H]2CCN(CC3CC3)C(=O)[C@@H]21 (racemic)", "ANSWER LABEL": "f"}
{"MOLECULE": "Cc1ccc(CNC(=O)[C@@H]2CC=C[C@@H]3CCN(c4ccccc4)C(=O)[C@@H]32)cc1 (racemic)", "ANSWER LABEL": "t"}
{"MOLECULE": "CN(C(=O)[C@@H]1CC=C[C@@H]2CCN(CC3CCCCC3)C(=O)[C@@H]21)c1ccccc1 (racemic)", "ANSWER LABEL": "f"}

[in] Does the molecule O=C(Nc1ccc(I)cc1)[C@@H]1CC=C[C@@H]2CCN(Cc3ccccc3)C(=O)[C@@H]21 (racemic) have recorded pKi that is 6 or more?
[out] t

[in] pKi >= 6 for NC(=O)c1ccccc1NC(=O)[C@@H]1CC=C[C@@H]2CCN(c3ccccc3)C(=O)[C@@H]21 (racemic) ?
[out] t

[in] Is the recorded value of pKi equal to or greater than 6 for this molecule? O=C(NC1CCCCC1)[C@@H]1CC=C[C@@H]2CN(C3CCCCC3)C(=O)[C@@H]21 (racemic)
[out] f

[in] # bool: pKi of O=C1[C@H]2[C@H](C=CC[C@H]2C(=O)N2CCCC2)CCN1Cc1ccccc1 (racemic) >= 6
[out] f

[in] In plain terms: is recorded pKi at least 6 for O=C(Nc1ccc(Br)c(C(F)(F)F)c1)[C@@H]1CC=C[C@@H]2CCN(Cc3ccccc3F)C(=O)[C@@H]21 (racemic) ?
[out] t
